- tested-target: EGFR^L858R (Homo sapiens, UniProt P00533, L858R)
- Sequence (P00533 25-1210 L858R): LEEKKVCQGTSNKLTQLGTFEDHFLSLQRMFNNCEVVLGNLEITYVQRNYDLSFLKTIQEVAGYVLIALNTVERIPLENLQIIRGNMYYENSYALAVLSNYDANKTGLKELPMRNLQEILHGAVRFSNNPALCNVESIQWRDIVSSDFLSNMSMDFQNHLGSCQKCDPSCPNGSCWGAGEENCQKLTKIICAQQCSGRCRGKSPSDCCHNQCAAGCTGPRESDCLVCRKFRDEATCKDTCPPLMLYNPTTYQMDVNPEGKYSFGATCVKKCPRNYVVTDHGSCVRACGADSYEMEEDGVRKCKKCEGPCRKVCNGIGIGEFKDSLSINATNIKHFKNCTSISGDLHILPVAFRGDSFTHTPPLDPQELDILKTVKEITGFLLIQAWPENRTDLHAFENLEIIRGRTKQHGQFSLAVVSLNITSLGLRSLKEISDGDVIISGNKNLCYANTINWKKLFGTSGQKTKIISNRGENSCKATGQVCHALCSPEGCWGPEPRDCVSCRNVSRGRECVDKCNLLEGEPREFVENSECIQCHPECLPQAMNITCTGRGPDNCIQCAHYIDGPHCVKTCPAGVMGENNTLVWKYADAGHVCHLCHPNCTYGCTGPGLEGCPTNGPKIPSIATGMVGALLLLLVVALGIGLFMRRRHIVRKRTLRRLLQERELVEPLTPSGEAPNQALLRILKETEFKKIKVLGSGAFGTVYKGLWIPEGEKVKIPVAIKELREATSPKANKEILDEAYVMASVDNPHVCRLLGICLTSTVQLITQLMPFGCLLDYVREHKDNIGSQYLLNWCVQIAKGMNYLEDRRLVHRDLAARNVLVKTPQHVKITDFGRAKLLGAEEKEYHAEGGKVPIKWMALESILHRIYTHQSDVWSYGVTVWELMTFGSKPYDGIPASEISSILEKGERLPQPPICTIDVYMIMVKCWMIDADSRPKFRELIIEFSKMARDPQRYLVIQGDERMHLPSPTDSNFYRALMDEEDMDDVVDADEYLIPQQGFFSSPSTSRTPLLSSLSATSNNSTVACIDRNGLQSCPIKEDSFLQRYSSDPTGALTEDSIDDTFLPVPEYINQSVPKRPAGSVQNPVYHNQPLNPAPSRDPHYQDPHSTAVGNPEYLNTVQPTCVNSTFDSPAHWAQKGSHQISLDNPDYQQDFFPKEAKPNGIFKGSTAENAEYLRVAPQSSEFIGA
- assay-method-text: in vitro kinase assay (HTRF KinEASE-TK kit), L
- condition-context: kinase inhibition
pIC50: −log10 of the molar value.
measured-property: pIC50

compound: C[C@H]1CCOc2c(cnn2C)-c2nccc(n2)Nc2cc3c(cn2)c(-c2ccc(CN(C)CCF)n2C)nn31
tested-target: EGFR^L858R (Homo sapiens, UniProt P00533, L858R)
result: > 8.00
--
compound: Cc1c(-c2nn3c4cc(ncc24)Nc2ccnc(n2)-c2cnn(C)c2OCCCC3C)cnn1CCC(C)(C)O (stereo not shown)
tested-target: EGFR^L858R (Homo sapiens, UniProt P00533, L858R)
result: 7.00 to 8.00
--
compound: Cc1nc(-c2nn3c4cc(ncc24)Nc2ccnc(n2)-c2cnn(C)c2OCC[C@@H]3C)sc1CN1CCOCC1
tested-target: EGFR^L858R (Homo sapiens, UniProt P00533, L858R)
result: > 8.00
--
compound: C[C@H]1CCOc2c(cnn2C)-c2nccc(n2)Nc2cc3c(cn2)c(-c2cccc(OCCN(C)C)c2)nn31
tested-target: EGFR^L858R (Homo sapiens, UniProt P00533, L858R)
result: > 8.00

Q: If you can, please state the reported pIC50 value of "Cc1cc(-c2nn3c4cc(ncc24)Nc2ccnc(n2)-c2cnn(C)c2OCC[C@@H]3C)oc1CN(C)C" .
Result: > 8.00

Q: If you can, please state the reported pIC50 value of "C[C@H]1CCOc2c(cnn2C)-c2nccc(n2)Nc2cc3c(cn2)c(N2CC[C@H](CN(C)CCF)C2)nn31" .
Result: > 8.00

Q: If you can, please state the reported pIC50 value of "CCN(CC)CCN(C)c1cc(F)cc(-c2nn3c4cc(ncc24)Nc2ccnc(n2)-c2cnn(C)c2OCC[C@@H]3C)c1" .
Result: 7.00 to 8.00

----------
- tested-target: EGFR^L858R (Homo sapiens, UniProt P00533, L858R)
- assay-method-text: in vitro kinase assay (HTRF KinEASE-TK kit), L
- Assay type: biochemical
- condition-context: kinase inhibition
Each entry below carries its reported IC50.

# annotated cases, reported IC50 shown
compound: C[C@H]1CCOc2c(cnn2C)-c2nccc(n2)Nc2cc3c(cn2)c(-c2cccc(N4CC[C@H](N(C)C)C4)c2)nn31 [(167)]
tested-target: EGFR^L858R (Homo sapiens, UniProt P00533, L858R)
IC50: < 10 nM

compound: CC1CCCOc2c(cnn2C)-c2nccc(n2)Nc2cc3c(cn2)c(-c2nnc(CN4CCN(C)CC4)o2)nn31 (stereo not shown) [(94)]
tested-target: EGFR^L858R (Homo sapiens, UniProt P00533, L858R)
IC50: 100 to 1000 nM

compound: CN1CCN(CC2CCN(c3nn4c5cc(ncc35)Nc3ccnc(n3)-c3cnn(C)c3OCCC4)C2)CC1 (stereo not shown) [(57)]
tested-target: EGFR^L858R (Homo sapiens, UniProt P00533, L858R)
IC50: 10 to 100 nM

Q: If you can, please state the reported IC50 value of CCn1cc(-c2nn3c4cc(ncc24)Nc2ccnc(n2)-c2cnn(C)c2OCCC3C)cc1CN1CCN(C(C)C)CC1 (stereo not shown) [(80)] .
Result: < 10 nM
